Each record here notes measured relative viability.
tested on: BEN; assay: relative viability (nuclei count vs DMSO), 5 days (fraction); higher = more cells survive; settings: first compound 0.05 µM
Please reply with the number alone, leaving off any unit.

CC1(C)CCC(c2ccc(Cl)cc2)=C(CN2CCN(c3ccc(C(=O)NS(=O)(=O)c4ccc(N[C@H](CCN5CCOCC5)CSc5ccccc5)c(S(=O)(=O)C(F)(F)F)c4)cc3)CC2)C1 [Navitoclax] + NC(=O)Nc1cc(-c2cccc(F)c2)sc1C(=O)N[C@H]1CCCNC1 [AZD7762] (partner 0.2 µM) ... 0.647
CC1(C)CCC(c2ccc(Cl)cc2)=C(CN2CCN(c3ccc(C(=O)NS(=O)(=O)c4ccc(N[C@H](CCN5CCOCC5)CSc5ccccc5)c(S(=O)(=O)C(F)(F)F)c4)cc3)CC2)C1 [Navitoclax] + COc1cccc2cc(-c3nc([C@H]4CC[C@H](C(=O)O)CC4)n4ncnc(N)c34)[nH]c12 [OSI-027] (partner 0.5 µM) ... 0.333
CC1(C)CCC(c2ccc(Cl)cc2)=C(CN2CCN(c3ccc(C(=O)NS(=O)(=O)c4ccc(N[C@H](CCN5CCOCC5)CSc5ccccc5)c(S(=O)(=O)C(F)(F)F)c4)cc3)CC2)C1 [Navitoclax] + Cc1cc(Nc2cc(N3CCN(C)CC3)nc(Sc3ccc(NC(=O)C4CC4)cc3)n2)n[nH]1 [Tozasertib] (partner 0.1 µM) ... 0.522

# input for lookup
So what's the measured relative viability for this one? CC1(C)CCC(c2ccc(Cl)cc2)=C(CN2CCN(c3ccc(C(=O)NS(=O)(=O)c4ccc(N[C@H](CCN5CCOCC5)CSc5ccccc5)c(S(=O)(=O)C(F)(F)F)c4)cc3)CC2)C1 [Navitoclax] + Cc1nc(Nc2ncc(C(=O)Nc3c(C)cccc3Cl)s2)cc(N2CCN(CCO)CC2)n1 [Dasatinib] (partner 0.075 µM) 0.333
